target: TDO2 (Homo sapiens); construct: decreased levels of NFK in SW48 cells (high TDO expressing cells); assay: TDO2 cell assay (NFK GreenScreen, SW48 cells); assay type: cell-based; conditions: SW48 cells (high TDO expressing), 200 uM tryptophan, 24 hours; Table 3; read-out: TDO2 Cell Fluor EC50
Quantity Name: pEC50
Scale for pEC50: -log10 of concentration given in mol/L; no unit attached.

- Compound: "CS(=O)(=O)N1CCC(C2c3ccc(F)cc3-c3cncn32)C(O)C1 (single isomer, unassigned) [Example 119b]"
  pEC50: 5.08
- Compound: "OC(C1CC1)C1c2ccccc2-c2cncn21 (single isomer, unassigned) [Example 52a]"
  pEC50: 6.62

Exercise: Report pEC50 for N#CCN1CC[C@@H]([C@H]2c3ccccc3-c3cncn32)[C@H](O)C1 (single isomer, unassigned) [Example 27b]
Solution: 4.74

Exercise: Report pEC50 for OC1c2nonc2CCC1C1c2ccccc2-c2cncn21 (single isomer, unassigned) [Example 163e]
Solution: 5.21

Exercise: Report pEC50 for CC(C)(O)C1c2ccccc2-c2cncn21 (racemic)
Solution: 5.16

Exercise: Report pEC50 for OC1CC2(CC2)C1C1c2ccccc2-c2cncn21 (single isomer, unassigned) [Example 72a]
Solution: 5.18

Exercise: Report pEC50 for OC1CC2(COC2)C1C1c2ccccc2-c2cncn21 (single isomer, unassigned) [Example 87a]
Solution: 4.74

###

target: TDO2 (Homo sapiens, UniProt P48775); construct: decreased levels of NFK in SW48 cells (high TDO expressing cells); assay: TDO2 cell assay (NFK GreenScreen, SW48 cells); format: cell-based; details: SW48 cells (high TDO expressing), 200 uM tryptophan, 24 hours; Table 3; read-out: TDO2 Cell Fluor EC50
Sequence (P48775 whole entry): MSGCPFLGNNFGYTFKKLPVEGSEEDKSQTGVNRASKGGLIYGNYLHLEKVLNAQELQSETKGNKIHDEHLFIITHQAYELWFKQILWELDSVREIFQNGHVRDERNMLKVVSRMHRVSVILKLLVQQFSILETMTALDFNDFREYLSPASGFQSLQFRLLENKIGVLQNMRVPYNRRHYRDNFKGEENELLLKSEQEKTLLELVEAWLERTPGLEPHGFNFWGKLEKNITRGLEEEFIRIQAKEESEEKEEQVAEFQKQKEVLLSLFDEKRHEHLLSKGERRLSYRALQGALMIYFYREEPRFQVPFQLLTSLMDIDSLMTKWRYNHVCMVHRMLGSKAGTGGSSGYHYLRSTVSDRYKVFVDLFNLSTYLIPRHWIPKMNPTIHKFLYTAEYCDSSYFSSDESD
Could you please mark T for values of EC50 below 4 µM and F for values at or above it?

- Molecule: "NS(=O)(=O)N1CC[C@@H]([C@@H]2c3ccccc3-c3cncn32)[C@H](O)C1 (single isomer, unassigned) [Example 39d]"
  Target Of Assay: "TDO2 (Homo sapiens, UniProt P48775)"
  Discrete Label: "T"

Exercise: Problem: For the molecule Nc1ncc2c(n1)CCC(C1c3ccccc3-c3cncn31)C2O (single isomer, unassigned) [Example 111f] , is EC50 under 4 µM?
Solution: F

Exercise: Problem: For the molecule OC1c2ccnn2CCCC1C1c2ccccc2-c2cncn21 (single isomer, unassigned) [Example 133d] , is EC50 under 4 µM?
Solution: F

###

target: TDO2 (Homo sapiens, UniProt P48775); construct: decreased levels of NFK in SW48 cells (high TDO expressing cells); experiment: TDO2 cell assay (NFK GreenScreen, SW48 cells); format: cell-based; details: SW48 cells (high TDO expressing), 200 uM tryptophan, 24 hours; Table 3; read-out: TDO2 Cell Fluor EC50
Could you please mark yes (1) for values of EC50 below 400 nM and no (0) for values at or above it?

Example entries begin here.
- Compound: "NS(=O)(=O)c1ccc2c(c1)CCC(C1c3ccccc3-c3cncn31)C2O (single isomer, unassigned) [Example 100h]"
  Discrete Label: "no (0)"
- Compound: "NC(=O)c1ccc2c(n1)CCC(C1c3ccccc3-c3cncn31)C2O (single isomer, unassigned) [Example 104b]"
  Discrete Label: "yes (1)"
- Compound: "O[C@H]1c2[nH]ncc2CC[C@H]1[C@H]1c2ccccc2-c2cncn21 [Example 157d]"
  Discrete Label: "no (0)"
- Compound: "OC1(C2c3ccccc3-c3cncn32)CCOC1 (single isomer, unassigned) [Example 129b]"
  Discrete Label: "no (0)"

Exercise: Problem: For the compound O[C@H]1CC(CF)(CF)[C@H]1[C@@H]1c2ccccc2-c2cncn21 [Example 150c] , is EC50 under 400 nM?
Solution: yes (1)

Exercise: Problem: For the compound Cc1ccc2c(c1)C(C1COCC1O)n1cncc1-2 (single isomer, unassigned) [Example 110a] , is EC50 under 400 nM?
Solution: no (0)

Exercise: Problem: For the compound Cc1ccc2c(c1)C(C1COCC1O)n1cncc1-2 (single isomer, unassigned) [Example 110c] , is EC50 under 400 nM?
Solution: no (0)

Exercise: Problem: For the compound N#Cc1ccc2c(c1)CCC(C1c3ccccc3-c3cncn31)C2O (single isomer, unassigned) [Example 62b] , is EC50 under 400 nM?
Solution: yes (1)

Exercise: Problem: For the compound O[C@@H]1c2ccccc2CC[C@H]1[C@H]1c2ccccc2-c2cncn21 [Example 102e] , is EC50 under 400 nM?
Solution: yes (1)

Exercise: Problem: For the compound OC1c2cnnn2CCC1C1c2ccccc2-c2cncn21 (single isomer, unassigned) [Example 146b] , is EC50 under 400 nM?
Solution: no (0)

Exercise: Problem: For the compound OC1c2nonc2CCC1C1c2ccccc2-c2cncn21 (single isomer, unassigned) [Example 163c] , is EC50 under 400 nM?
Solution: no (0)

Exercise: Problem: For the compound CN(C)S(=O)(=O)N1CC[C@@H]([C@H]2c3ccccc3-c3cncn32)[C@H](O)C1 [Example 78b] , is EC50 under 400 nM?
Solution: yes (1)

Exercise: Problem: For the compound OC1(C2c3ccccc3-c3cncn32)CCCOC1 (single isomer, unassigned) [Example 144b] , is EC50 under 400 nM?
Solution: no (0)

Exercise: Problem: For the compound CNS(=O)(=O)N1CC[C@@H]([C@H]2c3ccccc3-c3cncn32)[C@H](O)C1 [Example 74b] , is EC50 under 400 nM?
Solution: yes (1)

Exercise: Problem: For the compound CN(C)C(=O)c1ccc2c(c1)CCC(C1c3ccccc3-c3cncn31)C2O (single isomer, unassigned) [Example 98a] , is EC50 under 400 nM?
Solution: yes (1)

###

molecular target: TDO2 (Homo sapiens); construct: decreased levels of NFK in SW48 cells (high TDO expressing cells); test: TDO2 cell assay (NFK GreenScreen, SW48 cells); format: cell-based; conditions: SW48 cells (high TDO expressing), 200 uM tryptophan, 24 hours; Table 3; read-out: TDO2 Cell Fluor EC50
pEC50: −log10 of the molar value.
Would you mind labelling by pEC50? At or over 6 is yes, under is no.

Example entries begin here.
- Compound: "O[C@@H]1c2cnccc2CC[C@@H]1[C@H]1c2ccccc2-c2cncn21 (single isomer, unassigned) [Example 04d]"
  Discrete Label: "no"
- Compound: "OC1c2cncnc2CCC1C1c2ccccc2-c2cncn21 (single isomer, unassigned) [Example 94h]"
  Discrete Label: "no"
- Compound: "OC1C(C2c3ccc(F)cc3-c3cncn32)CC12CCOCC2 (single isomer, unassigned) [Example 109g]"
  Discrete Label: "yes"

Exercise: Determine whether measured pEC50 meets or exceeds 6 for N#Cc1ccc2c(c1)CCC(C1c3ccccc3-c3cncn31)C2O (single isomer, unassigned) [Example 62f]
Solution: no

Exercise: Determine whether measured pEC50 meets or exceeds 6 for NS(=O)(=O)c1ccc2c(c1)C(O)C(C1c3ccccc3-c3cncn31)CC2 (single isomer, unassigned) [Example 105h]
Solution: yes

Exercise: Determine whether measured pEC50 meets or exceeds 6 for N#Cc1cnc2c(c1)CCC(C1c3ccccc3-c3cncn31)C2O (single isomer, unassigned) [Example 107d]
Solution: no

Exercise: Determine whether measured pEC50 meets or exceeds 6 for O[C@@H]1c2c(Cl)cnn2CC[C@@H]1[C@@H]1c2ccccc2-c2cncn21 [Example 160a]
Solution: no

Exercise: Determine whether measured pEC50 meets or exceeds 6 for O[C@@H]1CCOC[C@H]1[C@H]1c2ccccc2-c2cncn21 [Example 05b]
Solution: yes

###

target: TDO2 (Homo sapiens, UniProt P48775); construct: decreased levels of NFK in SW48 cells (high TDO expressing cells); test: TDO2 cell assay (NFK GreenScreen, SW48 cells); assay type: cell-based; details: SW48 cells (high TDO expressing); TDO selectivity table; read-out: TDO2 cell Fluor EC50
// reported EC50 for each item listed

Exercise: Report EC50 for O[C@@H]1c2cncn2CC[C@H]1[C@H]1c2ccccc2-c2cncn21 [Example 07h]
Solution: 860 nM

Exercise: Report EC50 for NS(=O)(=O)N1CCC(O)C(C2c3ccccc3-c3cncn32)CC1 (single isomer, unassigned) [Example 101d]
Solution: 770 nM

Exercise: Report EC50 for O[C@@H]1c2ccnn2CC[C@H]1[C@H]1c2ccccc2-c2cncn21 [Example 56a]
Solution: 150 nM

Exercise: Report EC50 for OC1c2[nH]ncc2CCC1C1c2ccccc2-c2cncn21 (single isomer, unassigned) [Example 157g]
Solution: 42 nM

Exercise: Report EC50 for CCS(=O)(=O)N1CC[C@@H]([C@H]2c3ccccc3-c3cncn32)[C@H](O)C1 [Example 16a]
Solution: 110 nM

Exercise: Report EC50 for NC(=O)c1nc2c(s1)CCC(C1c3ccccc3-c3cncn31)C2O (single isomer, unassigned) [Example 149b]
Solution: 55 nM

Exercise: Report EC50 for NC(=O)c1ccc2c(c1)CC[C@@H]([C@H]1c3ccccc3-c3cncn31)[C@@H]2O [Example 60e]
Solution: 35 nM

Exercise: Report EC50 for Cn1ncc2c1CCC(C1c3ccccc3-c3cncn31)C2O (single isomer, unassigned) [Example 93a]
Solution: 380 nM
